Each entry below carries its recorded melting point.
details: a range is the spread between reports

INSERT INTO assay_data (compound, value_reported) VALUES
  ('CC(C)OC(C)C', '-86.8 to -86 °C');

Look up melting point: CC(=O)c1ccccc1C(=O)O
114 to 117 °C

Cool, now O=[N+]([O-])c1ccccc1Br
42 to 43 °C

Same lookup for Cc1ncc[nH]1 , please.
143 to 144 °C

Then this compound: Cc1ccc(Cl)cc1[N+](=O)[O-]
36 to 39 °C

Also, Nc1cc([N+](=O)[O-])ccc1O please.
143 to 144 °C

Next entry: Nc1ccc(F)cc1F
-8 to -7.5 °C

Same for Clc1cc(Cl)c(Cl)c(Cl)c1Cl
85 to 86 °C

Please do the same for O=C(O)c1ccccc1[N+](=O)[O-] as well.
146 to 148 °C

Next entry: CCOC(=O)CCl
-26 to -21 °C

Try COc1ccc(N)c([N+](=O)[O-])c1 next.
124 to 127 °C
